Test system: IGROV-1
TEST_METHOD_NOTES: NCI tumour cell line growth inhibition, 48 h
The source made the active and inactive calls. Cut-off read from the data, not from the text of the source: active = GI50 up to about 1.1 µM and inactive = higher.
Labels: active, inactive

- COMPOUND: "COC(=O)c1nn(C(=N)c2ccc(Cl)cc2)c2c1CCCCC2"
  GROUP_LABEL: "inactive"
- COMPOUND: "O=S(=O)(O)c1ccc(/N=N/c2ccc(/N=N/c3c(O)c(S(=O)(=O)O)cc4cc(S(=O)(=O)O)ccc34)cc2)cc1"
  GROUP_LABEL: "inactive"
- COMPOUND: "O=[N+]([O-])c1cc(Cl)c(Cl)cc1[N+](=O)[O-]"
  GROUP_LABEL: "inactive"
- COMPOUND: "N=C(Nc1nc(-c2ccccn2)cc2ccccc12)c1ccccn1"
  GROUP_LABEL: "active"
- COMPOUND: "O=Nc1c(-c2c(O)[nH]c3ccc(I)cc23)[nH]c2ccccc12"
  GROUP_LABEL: "inactive"
- COMPOUND: "O=[N+]([O-])c1ccc(COc2cccc3cccnc23)cc1"
  GROUP_LABEL: "inactive"
- COMPOUND: "N#CCCC(CC#N)N1CCN(CCO)CC1 (stereo not given)"
  GROUP_LABEL: "inactive"
- COMPOUND: "O=[N+]([O-])c1ccc(-c2nc3cc(Cl)ccc3[nH]2)cc1"
  GROUP_LABEL: "inactive"
- COMPOUND: "c1ccc(C(c2ccccc2)c2ccccn2)cc1"
  GROUP_LABEL: "inactive"
- COMPOUND: "Cc1cn(C2C=CC(COP(=O)(OCc3ccc([N+](=O)[O-])o3)N(C)CCCCCl)O2)c(=O)[nH]c1=O (stereo not given)"
  GROUP_LABEL: "inactive"
